Recorded inhibition at 0.05 µM values for a group of molecules are listed next.
# System: RSV-GFP
# experiment-description: RSV-GFP infection of HEp-2 cells, automated imaging, dose-response
# Type: cell-based, Respiratory syncytial virus
# setup-conditions: human respiratory syncytial virus, HEp-2, 48 h, read-out: RSV-GFP inhibition (%), log Conc (uM) -1.30103; replicate values
endpoint: inhibition at 0.05 µM (%)

* C[C@H]1O[C@@H](O[C@H]2[C@@H](O)C[C@H](O[C@H]3[C@@H](O)C[C@H](O[C@H]4CC[C@@]5(C)[C@H](CC[C@@H]6[C@@H]5CC[C@]5(C)[C@@H](C7=CC(=O)OC7)CC[C@]65O)C4)O[C@@H]3C)O[C@@H]2C)C[C@H](O)[C@@H]1O | 73
* O=c1cc(-c2ccccc2)oc2ccc(O)cc12 [6-Hydroxyflavone] | 11.4
* CC(C)[C@@H]1NC(=O)[C@H](C)OC(=O)[C@@H](C(C)C)NC(=O)[C@@H](C(C)C)OC(=O)[C@H](C(C)C)NC(=O)[C@H](C)OC(=O)[C@@H](C(C)C)NC(=O)[C@@H](C(C)C)OC(=O)[C@H](C(C)C)NC(=O)[C@H](C)OC(=O)[C@@H](C(C)C)NC(=O)[C@@H](C(C)C)OC1=O | 77.4
* C[C@H]1O[C@@H](O[C@H]2[C@@H](O)C[C@H](O[C@H]3[C@@H](O)C[C@H](O[C@H]4CC[C@@]5(C)[C@H](CC[C@@H]6[C@@H]5C[C@@H](O)[C@]5(C)[C@@H](C7=CC(=O)OC7)CC[C@]65O)C4)O[C@@H]3C)O[C@@H]2C)C[C@H](O)[C@@H]1O | 68.3

###

# System: RSV-GFP
# experiment-description: microbe, parasite or virus in culture
# Type: cell-based, Respiratory syncytial virus
# setup-conditions: 10.0 µM, HEp-2, RSV-GFP MOI 0.5, single replicate
Recorded RSV-GFP inhibition (%) values for a group of compounds are listed next.
endpoint: RSV-GFP inhibition (%)

* CC(=O)Oc1cc2c(c(C)c1OC(C)=O)CC=C1[C@@]2(C)CC[C@@]2(C)C3C[C@](C)(C(=O)O)CC[C@]3(C)CC[C@]12C (stereo partly shown) [Dihydrocelastryl diacetate] | 89.96
* CC(=O)OC1CCC23C(=O)OC45CCC(C6=CC(=O)OC6)C4(C)CCC2C5CCC3(O)C1 (stereo not shown) [Strophanthidinic acid lactone acetate] | 82.33
* CCc1c2c(nc3ccc(OC(=O)N4CCC(N5CCCCC5)CC4)cc13)-c1cc3c(c(=O)n1C2)COC(=O)[C@]3(O)CC.Cl [Irinotecan hydrochloride] | 55.56
* COc1cc2c(cc1OC)[C@@H]1C(=O)c3c(O)cc4c(c3O[C@@H]1CO2)C=CC(C)(C)O4 | 63.58

###

# Test system: RSV-GFP
# experiment-description: RSV-GFP infection of HEp-2 cells, automated imaging, dose-response
# Type: cell-based, Respiratory syncytial virus
# setup-conditions: human respiratory syncytial virus, HEp-2, 2 h, HEp-2, RSV-GFP MOI 0.5, treated 2 h post-viral exposure
Structures can show the parent of a compound that is named as a salt.
endpoint: EC50 (nM)

- C[C@H]1O[C@@H](O[C@H]2[C@@H](O)C[C@H](O[C@H]3[C@@H](O)C[C@H](O[C@H]4CC[C@@]5(C)[C@H](CC[C@@H]6[C@@H]5C[C@@H](O)[C@]5(C)[C@@H](C7=CC(=O)OC7)CC[C@]65O)C4)O[C@@H]3C)O[C@@H]2C)C[C@H](O)[C@@H]1O: 26
- C#C[C@]1(O)CC[C@H]2[C@@H]3CCC4=CC(=O)CC[C@@H]4[C@H]3CC[C@@]21C: 705
- C[C@]12CC[C@@H]3c4ccc(O)cc4CC[C@H]3[C@@H]1CC[C@@H]2O: 1620
- O=C(Nc1ccc([N+](=O)[O-])cc1Cl)c1cc(Cl)ccc1O [Niclosamide]: 443
- CC(C)c1c(C(=O)Nc2ccccc2)c(-c2ccccc2)c(-c2ccc(F)cc2)n1CC[C@@H](O)C[C@@H](O)CC(=O)O [Atorvastatin, Atorvastatin calcium salt trihydrate]: 2600
- CCC(C)(C)C(=O)O[C@H]1C[C@@H](C)C=C2C=C[C@H](C)[C@H](CC[C@@H]3C[C@@H](O)CC(=O)O3)[C@H]21: 1000
- O=c1cc(-c2ccccc2)oc2ccc(O)cc12 [6-Hydroxyflavone]: 705
- C[C@H]1O[C@@H](O[C@H]2[C@@H](O)C[C@H](O[C@H]3[C@@H](O)C[C@H](O[C@H]4CC[C@@]5(C)[C@H](CC[C@@H]6[C@@H]5CC[C@]5(C)[C@@H](C7=CC(=O)OC7)CC[C@]65O)C4)O[C@@H]3C)O[C@@H]2C)C[C@H](O)[C@@H]1O: 11

###

# System: RSV-GFP
# experiment-description: microbe, parasite or virus in culture
# Format: cell-based, Respiratory syncytial virus
# setup-conditions: 10.0 µM, HEp-2, RSV-GFP MOI 0.5, single replicate
# Protocol: The following morning, cells were washed twice with serum-free EMEM and treated with RSV-GFP (MOI 0.5) in a minimal volume of serum-free media for 90 min under frequent agitation. Unbound virus was then removed and replaced with fresh serum-containing EMEM. […] Automated quantification of infection rates from fluorescent images were performed in CellProfiler (v2.2.0)[86]. […] Infection rate was quantified from the ratio of nuclei within GFP-fluorescent area to the total number of nuclei (Fig. 1b). […]
Recorded RSV-GFP inhibition (%) values for a group of compounds are listed next.
endpoint: RSV-GFP inhibition (%)

• O=C1[O][Pt]2([NH][C@@H]3CCCC[C@H]3[NH]2)[O]C1=O = 88.7
• CC[C@@H](C(=O)[C@@H](C)[C@@H](O)[C@H](C)[C@@H]1O[C@@H]([C@@H](CC)C(=O)O)CC[C@@H]1C)[C@H]1O[C@]2(C=C[C@@H](O)[C@]3(CC[C@@](C)([C@H]4CC[C@](O)(CC)[C@H](C)O4)O3)O2)[C@H](C)C[C@@H]1C [Salinomycin, sodium] = 96.45
• CC1(C)C(=O)C=C[C@]2(C)[C@H]3CC[C@@]4(C)[C@H](c5ccoc5)OC(=O)[C@H]5O[C@]54[C@]3(C)C=C[C@@H]12 [7-Desacetoxy-6,7-dehydrogedunin] = 69.38
